method_description: Determination of the log P values by HPLC (formic acid method)
Assay type: physicochemical
assay_context: reversed-phase column (C 18), acidic range (pH 3.4), 55° C.
Use 3 as the dividing line for log P, with the line itself on the Yes side and lower values as No.

| molecule | assigned_category |
| --- | --- |
| N#Cc1cc(F)ccc1-n1ccc(NC(=O)c2c(F)cccc2C(F)(F)F)n1 [Compound I-1-632] | No |
| Cn1nc(C(C)(C)C)c([N+](=O)[O-])c1C(=O)Nc1ccn(-c2ncc(F)cc2F)n1 [Compound I-1-512] | Yes |
| O=C(Nc1nn(-c2ccccc2Br)nc1Cl)c1ccccc1C(F)(F)F [Compound I-2-26] | Yes |
| O=C(Nc1cnn(-c2ccccc2Cl)n1)c1ccccc1Cl [Compound I-2-2] | No |
| O=C(Nc1ccn(-c2ncccc2Cl)n1)c1cccnc1C(F)(F)F [Compound I-1-562] | No |
| Cn1cccc1C(=O)Nc1ccn(-c2c(F)cccc2F)n1 [Compound I-1-645] | No |
| O=C(Nc1ccn(-c2ncc(F)cc2F)n1)c1ccccc1I [Compound I-1-145] | No |
| O=C(Nc1cnn(-c2c(F)cccc2F)n1)c1ccccc1Cl [Compound I-2-38] | No |
| O=C(Nc1ccn(-c2ccccc2Cl)n1)c1cnccc1Cl [Compound I-1-381] | No |
| O=C(Nc1ccn(-c2c(F)cccc2F)c1)c1cccnc1C(F)(F)F [Compound I-3-5] | No |
| Cc1nc(C(F)(F)F)c(C(=O)Nc2ccn(-c3c(F)cccc3F)n2)s1 [Compound I-1-114] | No |
| O=C(Nc1nn(-c2ccccc2Cl)cc1Cl)c1ccccc1I [Compound I-1-34] | Yes |
| O=C(Nc1ccn(-c2ncc(F)cc2F)n1)c1ccncc1C(F)(F)F [Compound I-1-153] | No |
| O=C(Nc1ccn(-c2ccccc2Cl)n1)c1c(F)cccc1F [Compound I-1-36] | No |
| O=C(Nc1ccn(-c2ncccc2Br)n1)c1ccccc1Cl [Compound I-1-553] | No |
